List of IC50 values.
Tested on: MOLT-4
Assay: Cell viability assay (MTS) in MOLT-4 cells
Type: cell-based
Details: Homo sapiens, MOLT-4; Table 2A; 48 hr; MTS; read-out: Anti-Cancer Activity IC50 (48 hr) MOLT-4

Some solved entries appear below for comparison.
Cc1ncsc1-c1ccc([C@H](C)NC(=O)[C@@H]2C[C@@H](O)CN2C(=O)[C@@H](NC(=O)CN2CCN(CCNC(=O)c3ccc(CN4CCN(C[C@]5(C)CCC(c6ccc(Cl)cc6)=C(CN6CCN(c7ccc(C(=O)NS(=O)(=O)c8ccc(N[C@H](CCN9CCCOCC9)CSc9ccccc9)c(S(=O)(=O)C(F)(F)F)c8)cc7)CC6)C5)CC4)nc3)CC2)C(C)(C)C)cc1 [Compound 114] | < 20 nM
Cc1ncsc1-c1ccc([C@H](C)NC(=O)[C@@H]2C[C@@H](O)CN2C(=O)[C@@H](NC(=O)CN(C)CC(=O)N2CCC(C3CCN(C[C@]4(C)CCC(c5ccc(Cl)cc5)=C(CN5CCN(c6ccc(C(=O)NS(=O)(=O)c7ccc(N[C@H](CCN8CCCOCC8)CSc8ccccc8)c(S(=O)(=O)C(F)(F)F)c7)cc6)CC5)C4)CC3)CC2)C(C)(C)C)cc1 [Compound 118] | < 20 nM

Proceeding to the next compound to report its IC50.
# return recorded IC50 for input Cc1ncsc1-c1ccc([C@H](C)NC(=O)[C@@H]2C[C@@H](O)CN2C(=O)[C@@H](NC(=O)CCS(=O)(=O)N2CCN(C[C@]3(C)CCC(c4ccc(Cl)cc4)=C(CN4CCN(c5ccc(C(=O)NS(=O)(=O)c6ccc(N[C@H](CCN7CCCOCC7)CSc7ccccc7)c(S(=O)(=O)C(F)(F)F)c6)cc5)CC4)C3)CC2)C(C)(C)C)cc1 [Compound 109]
100 to 500 nM
